Consider the following compounds; for each one, report its pIC50.
# System name: human CCR6 (Homo sapiens, UniProt P51684)
# Sequence (P51684 whole entry): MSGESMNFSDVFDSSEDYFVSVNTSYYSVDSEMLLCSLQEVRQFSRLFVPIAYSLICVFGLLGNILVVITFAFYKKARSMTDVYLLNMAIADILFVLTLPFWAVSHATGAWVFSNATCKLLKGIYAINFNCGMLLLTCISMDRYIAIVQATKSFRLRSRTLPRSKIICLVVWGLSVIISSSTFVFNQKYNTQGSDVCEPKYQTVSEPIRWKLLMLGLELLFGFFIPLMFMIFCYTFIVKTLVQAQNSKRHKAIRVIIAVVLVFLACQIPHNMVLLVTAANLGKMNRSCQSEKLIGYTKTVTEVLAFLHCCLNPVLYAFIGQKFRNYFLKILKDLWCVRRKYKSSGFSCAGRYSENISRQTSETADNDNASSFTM
# Experiment description: FLIPR assay: inhibition of CCL20-induced calcium signal in HEK-293 cells expressing human CCR6
# Measurement parameters: engineered HEK-293 cells expressing human CCR6; agonist CCL20 10 nM; 30 min preincubation; Fluo-8-AM; mean values if determined several times
Answers are plain numbers, as −log10 of the molar value.

# example entries with known answers
INSERT INTO results (compound, val) VALUES
  ('CC(C)c1ccc([C@](O)(c2cncc(-c3nc(C4CCN(C)C(=O)C4)n(C(C)C)n3)c2)C2(C)CN(C)C2)cc1 (some centres unmarked) [Example 42]', 6.70),
  ('CC(C)c1ccc([C@](O)(c2cnnc(-c3nc(C4CCOCC4)n(C(C)C)n3)c2)C2(C)CN(C)C2)cc1 [Example 51]', 6.24);

// each compound listed below needs its pIC50
1. CN1CC(C)([C@](O)(c2ccc(OC(F)(F)F)cc2)c2cncc(-c3nc(C4CCOCC4)n(C4CC4)n3)c2)C1 [Example 4]
2. CC(C)c1ccc([C@](O)(c2cncc(-c3nc(C(C)(C)O)n(C4CC4)n3)c2)C2(C)CN(C)C2)cc1 [Example 26]
3. CC(C)c1ccc([C@](O)(c2cncc(-c3nc(C45CC(CO)(C4)C5)n(C(C)C)n3)c2)C2(C)CN(C)C2)cc1 [Example 29]

Found:
[6.94, 7.33, 7.10]

// each compound listed below needs its pIC50
1. CC(C)c1ccc([C@](O)(c2cncc(-c3nc([C@H]4CC[C@H](O)CC4)n(C4CC4)n3)c2)C2(C)CN(C)C2)cc1 [Example 8]
2. CC(C)c1ccc([C@](O)(c2cncc(-c3nc(C4(C)CCNC(=O)C4)n(C(C)C)n3)c2)C2(C)CN(C)C2)cc1 (some centres unmarked) [Example 45]
3. CN1CC(C)([C@](O)(c2ccc(C3(C(F)(F)F)CC3)cc2)c2cncc(-c3nc(C4CCOCC4)n(C4CC4)n3)c2)C1 [Example 3]
4. CN1CC(C)([C@](O)(c2ccc(CC(F)(F)F)cc2)c2cncc(-c3nc(C4CCOCC4)n(C4CC4)n3)c2)C1 [Example 5]

Found:
1. 7.01
2. 6.71
3. 7.30
4. 6.74

// each compound listed below needs its pIC50
1. CC(C)c1ccc([C@](O)(c2cncc(-c3nc(C4CCOCC4)n(C)n3)c2)C2(C)CN(C)C2)cc1 [Example 16]
2. CC(C)c1ccc([C@](O)(c2cncc(-c3nc(C4CCOCC4)n(CC(C)(F)F)n3)c2)C2(C)CN(C)C2)cc1 [Example 22]
3. CC(=O)NCCn1nc(-c2cncc([C@@](O)(c3ccc(C(C)C)cc3)C3(C)CN(C)C3)c2)nc1C1CCOCC1 [Example 50]

Found:
1. 6.66
2. 7.09
3. 6.32

// each compound listed below needs its pIC50
1. CC(C)c1ccc([C@](O)(c2cncc(-c3nc(C4(O)CCOCC4)n(C(C)C)n3)c2)C2(C)CN(C)C2)cc1 [Example 31]
2. CC(C)c1ccc([C@](O)(c2cncc(-c3nc(C4CCOCC4)n(CCO)n3)c2)C2(C)CN(C)C2)cc1 [Example 17]

Found:
1. 7.06
2. 6.29

---

# System name: human CCR6 (Homo sapiens, UniProt P51684)
# Experiment description: FLIPR assay: inhibition of CCL20-induced calcium signal in HEK-293 cells expressing human CCR6
# Measurement parameters: engineered HEK-293 cells expressing human CCR6; agonist CCL20 10 nM; 30 min preincubation; Fluo-8-AM; mean values if determined several times
Metric name: pIC50
Numbers only, as −log10 of the molar value.

INSERT INTO results (compound, system_name, val) VALUES
  ('CCn1nc(-c2cncc([C@@](O)(c3ccc(C(C)C)cc3)C3(C)CN(C)C3)c2)nc1C1CCOCC1 [Example 18]', 'human CCR6 (Homo sapiens, UniProt P51684)', 6.78),
  ('CC(=O)N1CCC(O)(c2nc(-c3cncc([C@@](O)(c4ccc(C(C)C)cc4)C4(C)CN(C)C4)c3)nn2C(C)C)CC1 [Example 47]', 'human CCR6 (Homo sapiens, UniProt P51684)', 6.69),
  ('CC(C)c1ccc([C@](O)(c2cncc(-c3nc(C4CCOCC4)n(C4CC4)n3)c2)C2(C)CN(C3CC3)C2)cc1 [Example 49]', 'human CCR6 (Homo sapiens, UniProt P51684)', 7.25);

Lookup: // fetch human CCR6 (Homo sapiens, UniProt P51684) pIC50 for CC(C)c1ccc([C@](O)(c2cncc(-c3nc(C4CCOCC4)n(C4CC4)n3)c2)C2(C)CN(CC(F)F)C2)cc1 [Example 35]
Found: 7.14

---

# System name: human CCR6 (Homo sapiens, UniProt P51684)
# Experiment description: FLIPR assay: inhibition of CCL20-induced calcium signal in HEK-293 cells expressing human CCR6
# Measurement parameters: engineered HEK-293 cells expressing human CCR6; agonist CCL20 10 nM; 30 min preincubation; Fluo-8-AM; mean values if determined several times
IC50 under 80 nM gets criterion met, anything at or over 80 nM gets criterion not met.

Example results:
INSERT INTO measurements (compound, discrete_label) VALUES
  ('CC(C)c1ccc([C@](O)(c2cncc(-c3nc(C45CC(CO)(C4)C5)n(C4CC4)n3)c2)C2(C)CN(C)C2)cc1 [Example 28]', 'criterion met'),
  ('CCCc1ccc([C@](O)(c2cncc(-c3nc(C4CCOCC4)n(C4CC4)n3)c2)C2(C)CN(C)C2)cc1 [Example 7]', 'criterion met'),
  ('CC(C)c1ccc([C@](O)(c2cncc(-c3nc(C4CCNC(=O)C4)n(C(C)C)n3)c2)C2(C)CN(C)C2)cc1 (some centres unmarked) [Example 46]', 'criterion not met');

Lookup: Does CC(C)c1ccc([C@](O)(c2cncc(-c3nc(C4CCOCC4)n(C4CC4)n3)c2)C2(C)CN(C)C2)cc1 [Example 14] have IC50 strictly under 80 nM?
Found: criterion not met

Lookup: Does COCCn1nc(-c2cncc([C@@](O)(c3ccc(C(C)C)cc3)C3(C)CN(C)C3)c2)nc1C1CCOCC1 [Example 48] have IC50 strictly under 80 nM?
Found: criterion not met

Lookup: Does CC(C)c1ccc([C@](O)(c2cncc(-c3nc(C(C)(C)O)n(C4CC4)n3)c2)C2(C)CNC2)cc1 [Example 37] have IC50 strictly under 80 nM?
Found: criterion not met

Lookup: Does CC(C)c1ccc([C@](O)(c2cncc(-c3nc(C4CCOCC4)n(C4CCC4)n3)c2)C2(C)CN(C)C2)cc1 [Example 23] have IC50 strictly under 80 nM?
Found: criterion met

Lookup: Does CC(C)c1ccc([C@](O)(c2cncc(-c3nc(-c4cccnc4)n(C4CC4)n3)c2)C2(C)CN(C)C2)cc1 [Example 24] have IC50 strictly under 80 nM?
Found: criterion met

Lookup: Does Cc1ncc([C@@](O)(c2ccc(C(C)C)cc2)C2(C)CN(C)C2)cc1-c1nc([C@H]2CC[C@H](O)CC2)n(C2CC2)n1 [Example 40] have IC50 strictly under 80 nM?
Found: criterion not met

Lookup: Does COC(=O)C12CCC(c3nc(-c4cncc([C@@](O)(c5ccc(C(C)C)cc5)C5(C)CN(C)C5)c4)nn3C3CC3)(CC1)CC2 [Example 10] have IC50 strictly under 80 nM?
Found: criterion met

Lookup: Does CC(C)c1ccc([C@](O)(c2cncc(-c3nc(C4CCOCC4)n(C4CC4)n3)c2)C2(C)CN(CCO)C2)cc1 [Example 36] have IC50 strictly under 80 nM?
Found: criterion not met

Lookup: Does CC(C)c1ccc([C@](O)(c2cncc(-c3nc(C45CCC(C(=O)O)(CC4)CC5)n(C4CC4)n3)c2)C2(C)CN(C)C2)cc1 [Example 13] have IC50 strictly under 80 nM?
Found: criterion not met

Lookup: Does CC(C)c1ccc([C@](O)(c2cncc(-c3nc(C4CCOCC4)n(C4CCCCC4)n3)c2)C2(C)CN(C)C2)cc1 [Example 15] have IC50 strictly under 80 nM?
Found: criterion met

---

# System name: human CCR6 (Homo sapiens, UniProt P51684)
# Construct: expressed in transfected cells; host or cells: HEK-293
# Experiment description: FLIPR assay: inhibition of CCL20-induced calcium signal in HEK-293 cells expressing human CCR6
# Type: cell-based
# Measurement parameters: engineered HEK-293 cells expressing human CCR6; agonist CCL20 10 nM; 30 min preincubation; Fluo-8-AM; mean values if determined several times
Metric name: pIC50
One number for each entry, as −log10 of the molar value.

# example entries with known answers
INSERT INTO results (structure_smiles, metric_name, val) VALUES
  ('CCCc1nc(-c2cncc([C@@](O)(c3ccc(C(C)C)cc3)C3(C)CN(C)C3)c2)nn1C(C)C', 'pIC50', 7.34),
  ('CC(=O)N1CCC(c2nc(-c3cncc([C@@](O)(c4ccc(C(C)C)cc4)C4(C)CN(C)C4)c3)nn2C2CC2)CC1', 'pIC50', 6.74),
  ('CC(C)c1ccc([C@](O)(c2cnc(F)c(-c3nc([C@H]4CC[C@H](O)CC4)n(C4CC4)n3)c2)C2(C)CN(C)C2)cc1', 'pIC50', 7.12);

// each compound listed below needs its pIC50
1. CN1CC(C)([C@](O)(c2ccc(C(C)(C)C)cc2)c2cncc(-c3nc(C4CCOCC4)n(C4CC4)n3)c2)C1
2. CC(C)c1ccc([C@](O)(c2cncc(-c3nc(C4(O)CCOCC4)n(C4CC4)n3)c2)C2(C)CN(C)C2)cc1

Found:
1. 7.09
2. 7.01
